These entries and their values trace back to ChEMBL document CHEMBL1143649.

- Tested on: Leishmania amazonensis
- Protocol Text: Antileishmanial activity against leishmania amazonensis promastigotes stage
- Format: functional
Catalogue of Activity readings, one per entry.

| Compound | Sign | Activity (µM) |
| --- | --- | --- |
| C=C/C(C)=C/C[C@]1(C)[C@H](C)C[C@H](OC(=O)c2ccccc2)[C@@]23C(=C[C@H](OC(=O)C(C)C)C[C@@H]12)C(OC(C)=O)OC3OC(C)=O (stereo partly drawn) | > | 200 |
| C[C@@H]1[C@H](O)[C@@H](C)/C=C/C=C/C=C/C=C/C=C/C=C/C=C/[C@H](O[C@@H]2O[C@H](C)[C@@H](O)[C@H](N)[C@@H]2O)C[C@@H]2O[C@](O)(C[C@@H](O)C[C@@H](O)[C@H](O)CC[C@@H](O)C[C@@H](O)CC(=O)O[C@H]1C)C[C@H](O)[C@H]2C(=O)O | = | 0.3 |
| C=C/C(C)=C/C[C@]1(C)[C@H](C)C[C@H](OC(=O)c2ccccc2)[C@@]23C(=C[C@H](OC(=O)C(C)CC)C[C@@H]12)C(OC(C)=O)OC3OC(C)=O (stereo partly drawn) | > | 200 |
| C=C/C(C)=C/C[C@]1(C)[C@H](C)C[C@H](OC)[C@@]2(C=O)C(C=O)=C[C@H](OC(=O)C(C)CC)C[C@@H]12 (stereo partly drawn) | = | 50.9 |
| C=C/C(C)=C/C[C@]1(C)[C@H](C)C[C@H](O)[C@@]23C(=C[C@@H](OC(=O)C(C)CC)C[C@@H]12)C(OC(C)=O)OC3OC(C)=O (stereo partly drawn) | = | 11 |
| C=C/C(C)=C/C[C@]1(C)[C@H](C)C[C@H](OC)[C@@]23C(=C[C@H](OC(=O)C(C)CC)C[C@@H]12)C(OC(C)=O)OC3OC(C)=O (stereo partly drawn) | = | 10.9 |
| CCCCCCCC/C=C\CCCCCC[C@@H]1C(=O)O[C@@H](C)[C@H]1O | = | 111 |
| C=C/C(C)=C/C[C@]1(C)[C@H](C)C[C@H](O)[C@@]23C(=C[C@H](OC(=O)C(C)CC)C[C@@H]12)C(OC(C)=O)OC3OC(C)=O (stereo partly drawn) | = | 11.1 |

###

- Tested on: MCF7
- Protocol Text: Ratio of cytotoxic activity against human MCF-7 cells to that of antiplasmodial activity against Plasmodium falciparum FcB1
- Format: functional
Mark Met for Ratio under 3, Not met if at or over.

| Molecule | Cat |
| --- | --- |
| CCCCCCCC/C=C\CCCCCC[C@@H]1C(=O)O[C@@H](C)[C@H]1O | Met |
| C=C/C(C)=C/C[C@]1(C)[C@H](C)C[C@H](O)[C@@]23C(=C[C@@H](OC(=O)C(C)CC)C[C@@H]12)C(OC(C)=O)OC3OC(C)=O (some centres not stated) | Met |
| C=C/C(C)=C/C[C@]1(C)[C@H](C)C[C@H](OC(=O)c2ccccc2)[C@@]23C(=C[C@H](OC(=O)C(C)CC)C[C@@H]12)C(OC(C)=O)OC3OC(C)=O (some centres not stated) | Not met |
| C=C/C(C)=C/C[C@]1(C)[C@H](C)C[C@H](OC)[C@@]23C(=C[C@H](OC(=O)C(C)CC)C[C@@H]12)C(OC(C)=O)OC3OC(C)=O (some centres not stated) | Not met |
| C=C/C(C)=C/C[C@]1(C)[C@H](C)C[C@H](OC(=O)c2ccccc2)[C@@]23C(=C[C@H](OC(=O)C(C)C)C[C@@H]12)C(OC(C)=O)OC3OC(C)=O (some centres not stated) | Not met |
| C=C/C(C)=C/C[C@]1(C)[C@H](C)C[C@H](O)[C@@]23C(=C[C@H](OC(=O)C(C)CC)C[C@@H]12)C(OC(C)=O)OC3OC(C)=O (some centres not stated) | Met |
| C=C/C(C)=C/C[C@]1(C)[C@H](C)C[C@H](OC)[C@@]2(C=O)C(C=O)=C[C@H](OC(=O)C(C)CC)C[C@@H]12 (some centres not stated) | Met |
